- protocol.summary: chemical genetic growth profiling, strain panel (AID 1159580);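 also: tested at 20 µM; growth read once vehicle control cultures reached saturation at 30 °C; 1 = growth at the plate median or of vehicle wells; lower values mean less growth of the strain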
- applied.conditions: S. cerevisiae deletion strains, growth OD, locus YLR027C, strain aat2, hits give low values
Screen size: about 5,500 compounds; about 2,000 (36%) were called active. Inconclusive results (about 18%) are left out. The list shows a part of the results.
metric.name: normalized growth
Reply with just the number.

CC1(C)OC(=O)NC1=O; 1.01
CC(=O)[C@H]1CCC2C3CCC4=CC(=O)CC[C@]4(C)C3CC[C@@]21C (stereo not given in full); 0.95
CO[C@H]1[C@H](O)[C@H](O[C@H]2CC[C@]3(C)C4CC[C@]5(C)C(C6=CC(=O)OC6)CC[C@]5(O)C4CC[C@@H]3C2)O[C@@H](C)[C@@H]1O (stereo not given in full); 0.999
CC(=O)O[C@@H]1C[C@@]2(C)C(CC[C@@H]2C(C)=O)C2CCC3=CC(=O)CC[C@]3(C)C21 (stereo not given in full); 0.998

Then this molecule:
Fill blank: measured normalized growth of the molecule `CS(=O)(=O)c1ccc(C2=C(c3ccccc3)C(=O)OC2)cc1` is ____.
0.978

----------
Quick list: normalized growth per entry.
- protocol.summary: chemical genetic growth profiling, strain panel (AID 1159580)
- applied.conditions: S. cerevisiae deletion strains, growth OD, locus YGR078C, strain PAC10, hits give low values
The whole screen tested about 5,500 compounds, of which about 2,000 (36%) were called active. Inconclusive results (about 18%) are left out. This is one part of the list.
Reply with just the number.

Reference set (5 entries):
COc1ccc(C2=C(C(C)=O)C(C)=NC(=S)C2C#N)cc1 (stereo not given); 0.993
CCCN(CCC)CCc1ccc(O)c(O)c1; 0.992
COc1ccc(NC(=O)c2cc(C(F)(F)F)cc(C(F)(F)F)c2)cn1; 0.92
CC(C)(OC(=O)c1ccccc1)[C@@H]1Cc2cc3ccc(=O)oc3cc2O1; 0.945
CCCCCCCCCCCCCCCC[N+](C)(C)C; 0.0545

Fill blank: measured normalized growth of the compound `C=Cc1c2[nH]c(c1C)Cc1[nH]c(c(C)c1C=C)C=C1N=C(C=c3[nH]c(c(C)c3CCC(=O)O)=C2)C(CCC(=O)O)=C1C` is ____.
1.01

Fill blank: measured normalized growth of the compound `COc1cc(C(F)(F)F)cc(C(F)(F)F)c1C(=O)Nc1cc(C(F)(F)F)cc(C(F)(F)F)c1` is ____.
1.01

Fill blank: measured normalized growth of the compound CC1=C(C(C)O)C2=NC1C=c1[nH]c(c(C)c1C(C)O)=Cc1[nH]c(c(CCC(=O)O)c1C)C=c1[nH]c(c(C)c1CCC(=O)O)=C2 (stereo not given) is ____.
0.984

Fill blank: measured normalized growth of the compound `CCOC(=O)C(C)(C)Oc1ccc(Cl)cc1` is ____.
1.02

Fill blank: measured normalized growth of the compound CC(N)C(=O)OC(C)(C)Cc1ccc(Cl)cc1 (stereo not given) is ____.
0.982

----------
Quick list: normalized growth per entry.
- protocol.summary: chemical genetic growth profiling, strain panel (AID 1159580)
- applied.conditions: S. cerevisiae deletion strains, growth OD, locus YBL105C, strain PKC1, hits give low values
About 2,000 (36%) of roughly 5,500 compounds were called active. Another 18% or so got no clear call; they are omitted. The list shows a part of the results.
Reply with just the number.

Reference set (4 entries):
Cc1cc(NNC(=O)c2ccccc2Cl)nc2c1c(C)nn2C; 0.989
Cc1ccc(-c2csc(-c3cccnc3)n2)c(C)c1; 0.967
Cc1cc(Cl)ccc1NNC(=O)c1ccno1; 0.958
O=C1C(=O)N(CN2CCc3c([nH]c4ccccc34)C2C(F)(F)F)c2ccc(F)cc21 (configuration not stated); 0.983

Then this molecule:
Fill blank: measured normalized growth of the molecule `COc1cc(NC(=S)NNS(=O)(=O)c2ccc(C)cc2)c(OC)cc1Cl` is ____.
0.974

----------
- protocol.summary: chemical genetic growth profiling, strain panel (AID 1159580)
- applied.conditions: S. cerevisiae deletion strains, growth OD, locus YHR142W, strain chs7
Hit rate of the full screen: of about 5,500 compounds, about 2,000 (36%) were called active. Not shown: some 18% with an inconclusive outcome. No stated cut-off is given here; in the data, active means normalized growth mostly below about 0.91 (no sharp cut-off); inconclusive means no clear call, values can overlap the other calls; inactive means mostly above about 0.92. The list shows a part of the results.
Valid outcomes are listed here; reply with one: yes for active, no for inactive

C[C@H]1CC2C([C@@H](O)C[C@@]3(C)C2CC[C@]3(O)C(=O)CO)[C@@]2(C)C=CC(=O)C=C12 (some centres not stated); no
NCCSSCCN; no
c1cncc(C2CCCCN2)c1 (configuration not stated); no
COc1cc2c(cc1OC)[C@@H]1C(=O)c3ccc(O)c(CC=C(C)C)c3O[C@@H]1CO2; no
COc1cc2c(cc1OC)[C@@H]1C(=O)c3ccc4oc(C(C)C)cc4c3O[C@@H]1CO2; no
COc1ccc2c(C)cc(=O)oc2c1; no
CC(C)OC(=O)C(C)(C)Oc1ccc(C(=O)c2ccc(Cl)cc2)cc1; no
COc1cc2c(cc1OC)[C@@H]1C(=O)c3ccc4c(c3O[C@@H]1CO2)C=CC(C)(C)O4; no
COc1cc(NC(C)CCCN)c2ncccc2c1 (configuration not stated); no
S=c1nc[nH]c2nc[nH]c12; no

Which outcome was entered for the compound CC(Oc1ccccc1)C(=O)N[C@@H]1C(=O)N2[C@@H]1SC(C)(C)[C@@H]2C(=O)O (some centres not stated) in this test?
no

Which outcome was entered for the compound `O=C(O)c1cc2ccccc2c(Cc2c(O)c(C(=O)O)cc3ccccc23)c1O` in this test?
no

Which outcome was entered for the compound `O=C(O)c1cc2ccccc2[nH]1` in this test?
no

Which outcome was entered for the compound `COc1cc2c(cc1OC)[C@@H]1C(=O)c3ccc(OC)c(CC=C(C)C)c3O[C@@H]1CO2` in this test?
no

----------
Quick list: normalized growth per entry.
- protocol.summary: chemical genetic growth profiling, strain panel (AID 1159580);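 also: tested at 20 µM; growth read once vehicle control cultures reached saturation at 30 °C; 1 = growth at the plate median or of vehicle wells; lower values mean less growth of the strain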
- applied.conditions: S. cerevisiae deletion strains, growth OD, locus YGL248W, strain PDE1, hits give low values
Among all 5,500 compounds or so, about 2,000 (36%) were called active. Inconclusive results (about 18%) are left out. The list shows a part of the results.
Reply with just the number.

Fill blank: measured normalized growth of the molecule `COc1cc2c(cc1OC)Cc1cc(OC)c(OC)cc1Cc1cc(OC)c(OC)cc1C2` is ____.
1.02

----------
Quick list: normalized growth per entry.
- protocol.summary: chemical genetic growth profiling, strain panel (AID 1159580);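 also: tested at 20 µM; growth read once vehicle control cultures reached saturation at 30 °C; 1 = growth at the plate median or of vehicle wells; lower values mean less growth of the strain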
- applied.conditions: S. cerevisiae deletion strains, growth OD, locus YGL086W, strain mad1, hits give low values
The campaign covered roughly 5,500 compounds. About 2,000 (36%) were called active. Not shown: some 18% with an inconclusive outcome. This is one part of the list.
Reply with just the number.

CC(=O)N[C@@H](CC(C)C)C(=O)O; 0.996
COc1cc2c(cc1OC)C1C(=O)c3c(O)cc4c(c3OC1CO2)C=CC(C)(C)O4 (stereo not given); 1.02
COc1cc2c(cc1OC)C1C(=O)c3c(cc4c(c3O)C=CC(C)(C)O4)OC1CO2 (stereo not given); 1.01

Fill blank: measured normalized growth of the compound `COc1cc2c(cc1OC)[C@@H]1C(=O)c3ccc(OC)c(CC=C(C)C)c3O[C@@H]1CO2` is ____.
0.999

Fill blank: measured normalized growth of the compound COc1cc2c(cc1OC)C1C(=O)c3c(OC)cc4c(c3OC1CO2)CCC(C)(C)O4 (stereo not given) is ____.
0.975

----------
- protocol.summary: chemical genetic growth profiling, strain panel (AID 1159580);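 also: tested at 20 µM; growth read once vehicle control cultures reached saturation at 30 °C; 1 = growth at the plate median or of vehicle wells; lower values mean less growth of the strain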
- applied.conditions: S. cerevisiae deletion strains, growth OD, locus YER155C, strain BEM2
Screen size: about 5,500 compounds; about 2,000 (36%) were called active. Not shown: some 18% with an inconclusive outcome. Cut-off read from the data, not from the text of the source: active = normalized growth mostly below about 0.91 (no sharp cut-off); inconclusive = no clear call, values can overlap the other calls; inactive = mostly above about 0.92. The list shows a part of the results.
Valid outcomes are listed here; reply with one: active, inactive

COc1cc2c(cc1OC)[C@@H]1C(=O)c3ccc(OC)c(CC=C(C)C)c3O[C@@H]1CO2; inactive
CCN(CCO)CCCC(C)Nc1ccnc2cc(Cl)ccc12 (stereo not given); inactive
CCN(CC)CCCC(C)Nc1ccnc2cc(Cl)ccc12 (stereo not given); inactive
N=c1ccn2c(n1)O[C@@H]1C2O[C@H](CO)[C@H]1O (stereo not given in full); inactive
COc1cc2c(cc1OC)C1C(=O)c3c(cc4c(c3O)C=CC(C)(C)O4)OC1CO2 (stereo not given); inactive
c1ccc(N=Nc2ccccc2)cc1; inactive
COc1cc2c(cc1OC)C1C(=O)c3ccc4c(c3OC1CO2)CCC(C)(C)O4 (stereo not given); inactive
COc1ccc2c(c1)O[C@@H]1COc3cc(OC)c(OC)cc3[C@@H]1C2=O; active

Which outcome was entered for the molecule `COc1cc2c(cc1OC)[C@@H]1C(=O)c3ccc4oc(C(C)C)cc4c3O[C@@H]1CO2` in this test?
inactive

Which outcome was entered for the molecule `COc1cc2c(cc1OC)[C@@H]1C(=O)c3ccc(O)c(CC=C(C)C)c3O[C@@H]1CO2` in this test?
inactive

Origin of values: PubChem BioAssay AID1159580
